Answer each item with its documented GI50.
tested on: SK-MEL-28; experiment: NCI tumour cell line growth inhibition, 48 h
Activity calls are given as the source filed them. Rule as the data show it: active = GI50 up to about 1.1 µM and inactive = higher.

Observe how each entry below is paired with its result.
For this molecule ( COc1ccc(CN2CC(C)(C)C2=O)c(OC)c1 ), measured GI50 is > 100 µM (inactive)

For this molecule ( Cc1cc2c(cc1-c1cc3c(cc1C)C(C(C)C)=C(O)C(=O)/C3=C\Nc1nc(-c3ccccc3)cs1)/C(=C/Nc1nc(-c3ccccc3)cs1)C(=O)C(O)=C2C(C)C ), measured GI50 is 16.8 µM (inactive)

For this molecule ( COc1ccc2c(c1)[n+]([O-])c(-c1ccc(OC)c(OC)c1)c(N)[n+]2[O-] ), measured GI50 is 25.4 µM (inactive)

For this molecule ( CCOC(=O)N1c2ccccc2N(C(=O)OCC)C1CC(=O)/C=C/c1ccccc1 ), measured GI50 is 7.57 µM (inactive)

Hi there! I need GI50 for each item below, if you can.
1. Cc1cc(C)c2c(O)cc(-c3cccc(Cl)c3)nc2n1
2. CS(=O)(=O)CCC1CCC(=O)O1 (centres undefined)
3. O=C1/C(=C/c2cccc([N+](=O)[O-])c2)N=C(c2ccccc2)N1c1nc2c(Cl)cc(Cl)cc2s1
4. CCOP(=O)(/C=C/n1cnc2c(=O)n(C(C)=O)c(N)nc21)OCC
5. Cc1c(N2C(=O)/C(=C/c3ccc(N(CCC#N)CCC#N)cc3)N=C2c2ccccc2)c(=O)n(-c2ccccc2)n1C

["5.09 µM (inactive)", "> 100 µM (inactive)", "40.7 µM (inactive)", "> 100 µM (inactive)", "> 100 µM (inactive)"]

* * *

Answer each item with its documented GI50.
test system: T47D; assay: NCI tumour cell line growth inhibition, 48 h
Activity calls are given as the source filed them. Rule as the data show it: active = GI50 up to about 1.1 µM and inactive = higher.

Observe how each entry below is paired with its result.
For this compound ( c1ccc2c(c1)c1c(n2CCOCCN2CCOCC2)CCCC1 ), measured GI50 is 32.2 µM (inactive)

For this compound ( C=CCOC1OC(CO[Si](C)(C)C(C)(C)C)C(OCc2ccccc2)C(OCc2ccccc2)C1OCc1ccccc1 (centres undefined) ), measured GI50 is 35.6 µM (inactive)

For this compound ( Cc1nc2c(=S)n(C)ncc2[nH]1 ), measured GI50 is > 100 µM (inactive)

Hi there! I need GI50 for each item below, if you can.
1. COC(=O)N/N=C(\C)C(CN1CCOCC1)C(c1ccccc1)c1cc2ccccc2oc1=O (centres undefined)
2. COC(=O)[C@@]12CC[C@]1(C(=O)OC)C1C(C)=CC(=O)O[C@@]12C (some centres undefined)
3. OCCOCn1nncc1Cn1ncc2c(O)ncnc21
4. COC(=O)[C@@H]1[C@@H](c2cccc(Cl)c2)[C@H](C(=O)OC)C2(C[C@@]1(C)O)NCCS2 (some centres undefined)
5. Cc1ccc(-c2cnc(NC3OC(COC(=O)c4ccccc4)C(OC(=O)c4ccccc4)C(OC(=O)c4ccccc4)C3OC(=O)c3ccccc3)s2)cc1 (centres undefined)
6. CCCCCCCC(CC(=O)NC(CO)C(=O)NC(CO)CC(C)C)OC(=O)CC(CCCCCCC)OC(=O)CC(CCCCCCC)OC1OC(C)C(O)C(OC2OC(C)C(OC(C)=O)C(O)C2O)C1O (centres undefined)

> 100 µM (inactive)
> 100 µM (inactive)
> 100 µM (inactive)
29.6 µM (inactive)
> 100 µM (inactive)
9.14 µM (inactive)

Data provenance: ChEMBL document CHEMBL1201862
